# measured target: human Nav1.8 (Homo sapiens, UniProt Q9Y5Y9)
# Construct: expressed in transfected cells; host or cells: HEK293 (HEK293-Nav1.8)
# Sequence (Q9Y5Y9 whole entry): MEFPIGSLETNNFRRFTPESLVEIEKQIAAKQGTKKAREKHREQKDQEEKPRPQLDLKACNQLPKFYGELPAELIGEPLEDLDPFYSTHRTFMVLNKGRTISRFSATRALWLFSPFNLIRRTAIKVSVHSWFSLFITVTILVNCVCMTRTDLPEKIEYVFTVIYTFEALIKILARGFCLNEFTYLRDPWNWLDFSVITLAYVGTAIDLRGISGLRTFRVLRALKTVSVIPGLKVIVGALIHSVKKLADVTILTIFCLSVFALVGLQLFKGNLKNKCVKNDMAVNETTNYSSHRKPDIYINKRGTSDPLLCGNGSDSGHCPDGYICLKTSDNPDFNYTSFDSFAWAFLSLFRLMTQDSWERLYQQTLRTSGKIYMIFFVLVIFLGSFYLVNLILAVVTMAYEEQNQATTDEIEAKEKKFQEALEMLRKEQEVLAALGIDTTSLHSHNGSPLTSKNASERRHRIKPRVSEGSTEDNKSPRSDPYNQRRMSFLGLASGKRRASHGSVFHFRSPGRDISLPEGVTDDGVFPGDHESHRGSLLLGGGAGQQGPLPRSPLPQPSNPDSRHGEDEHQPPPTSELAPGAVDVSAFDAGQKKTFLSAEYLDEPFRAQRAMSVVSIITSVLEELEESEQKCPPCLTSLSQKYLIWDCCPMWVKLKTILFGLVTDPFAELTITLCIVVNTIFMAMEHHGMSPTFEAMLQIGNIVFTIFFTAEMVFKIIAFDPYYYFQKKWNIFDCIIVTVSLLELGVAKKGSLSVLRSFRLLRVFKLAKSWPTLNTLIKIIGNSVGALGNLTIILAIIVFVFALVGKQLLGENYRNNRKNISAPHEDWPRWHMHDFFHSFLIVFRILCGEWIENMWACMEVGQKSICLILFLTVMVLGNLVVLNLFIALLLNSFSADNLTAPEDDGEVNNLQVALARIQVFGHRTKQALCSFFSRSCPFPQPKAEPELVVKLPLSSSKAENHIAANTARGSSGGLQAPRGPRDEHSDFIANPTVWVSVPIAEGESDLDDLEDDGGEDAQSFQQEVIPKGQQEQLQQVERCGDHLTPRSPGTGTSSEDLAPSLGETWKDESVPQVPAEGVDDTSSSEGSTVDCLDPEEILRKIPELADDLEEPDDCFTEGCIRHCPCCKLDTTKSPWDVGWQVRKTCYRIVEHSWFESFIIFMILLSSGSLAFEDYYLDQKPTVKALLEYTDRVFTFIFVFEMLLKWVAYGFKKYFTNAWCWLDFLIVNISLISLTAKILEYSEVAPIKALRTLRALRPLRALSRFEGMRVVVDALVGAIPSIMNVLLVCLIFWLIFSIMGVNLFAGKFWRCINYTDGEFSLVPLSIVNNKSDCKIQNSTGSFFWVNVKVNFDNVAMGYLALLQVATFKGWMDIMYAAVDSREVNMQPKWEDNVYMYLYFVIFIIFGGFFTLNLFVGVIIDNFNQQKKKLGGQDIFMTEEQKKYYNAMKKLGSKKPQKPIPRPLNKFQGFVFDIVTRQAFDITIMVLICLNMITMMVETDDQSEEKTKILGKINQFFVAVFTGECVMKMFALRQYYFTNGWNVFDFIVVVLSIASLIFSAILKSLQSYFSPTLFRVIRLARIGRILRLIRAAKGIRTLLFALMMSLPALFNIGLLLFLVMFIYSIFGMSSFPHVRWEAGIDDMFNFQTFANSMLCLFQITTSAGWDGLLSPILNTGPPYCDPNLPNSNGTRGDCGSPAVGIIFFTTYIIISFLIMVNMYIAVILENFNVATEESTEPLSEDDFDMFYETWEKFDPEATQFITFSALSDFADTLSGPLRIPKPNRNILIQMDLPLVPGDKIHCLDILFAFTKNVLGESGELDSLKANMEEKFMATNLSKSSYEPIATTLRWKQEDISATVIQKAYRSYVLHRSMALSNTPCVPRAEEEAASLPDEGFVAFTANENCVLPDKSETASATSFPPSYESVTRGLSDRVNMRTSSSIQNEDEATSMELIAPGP
# Sequence (Q07699 19-218 partner): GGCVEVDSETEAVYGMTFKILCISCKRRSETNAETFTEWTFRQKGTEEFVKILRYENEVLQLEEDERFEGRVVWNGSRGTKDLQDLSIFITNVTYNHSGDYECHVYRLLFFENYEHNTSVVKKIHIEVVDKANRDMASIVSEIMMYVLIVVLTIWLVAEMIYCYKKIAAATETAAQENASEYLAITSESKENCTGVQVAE
# protocol summary: Nav1.8 sodium channels assay, QPatch 48 HTX electrophysiology in HEK293-Nav1.8 cells
# Type: cell-based
# conditions: at least one set of experimental runs; read-out: average pIC50 value against Nav1.8 (converted)
Listing of recorded IC50 by entry.
experimental readout: IC50

- Cc1cc(O)ccc1N1CN(c2ccc(=O)[nH]c2C)C(=O)c2cc(C(F)(F)F)ccc21 [Example 127]: 126 to 631 nM
- Cc1ccc2c(c1)N(c1ccc(F)cc1C(C)C)CN(c1ccc(=O)[nH]c1C)C2=O [Example 69]: ≤ 100 nM
- Cc1cc(F)ccc1N1CN(c2ccc(=O)[nH]c2C)C(=O)c2cc(Cl)ccc21 [Example 48]: ≤ 100 nM
- Cc1cc(F)ccc1N1CN(c2c(C)nc(=O)[nH]c2C)C(=O)c2ccc(C(F)(F)F)cc21 [Example 94]: 794 to 7940 nM
- Cc1cc(F)ccc1N1CN(c2ccc(=O)[nH]c2)C(=O)c2ccc(C(F)(F)F)cc21 [Example 36]: 126 to 631 nM
- Cc1cc(F)ccc1N1CN(c2ccc(=O)[nH]c2C)C(=O)c2c1cc(F)c(Cl)c2F [Example 193]: ≤ 100 nM
- Cc1cc(OC(F)(F)F)ccc1N1CN(c2ccc(=O)[nH]c2C)C(=O)c2cc(Cl)c(C#N)cc21 [Example 172]: ≤ 100 nM

Origin of measurements: patent US20230103791A1
